Target: TRPV4:V4 (Homo sapiens, UniProt Q9HBA0)
Sequence (Q9HBA0 whole entry): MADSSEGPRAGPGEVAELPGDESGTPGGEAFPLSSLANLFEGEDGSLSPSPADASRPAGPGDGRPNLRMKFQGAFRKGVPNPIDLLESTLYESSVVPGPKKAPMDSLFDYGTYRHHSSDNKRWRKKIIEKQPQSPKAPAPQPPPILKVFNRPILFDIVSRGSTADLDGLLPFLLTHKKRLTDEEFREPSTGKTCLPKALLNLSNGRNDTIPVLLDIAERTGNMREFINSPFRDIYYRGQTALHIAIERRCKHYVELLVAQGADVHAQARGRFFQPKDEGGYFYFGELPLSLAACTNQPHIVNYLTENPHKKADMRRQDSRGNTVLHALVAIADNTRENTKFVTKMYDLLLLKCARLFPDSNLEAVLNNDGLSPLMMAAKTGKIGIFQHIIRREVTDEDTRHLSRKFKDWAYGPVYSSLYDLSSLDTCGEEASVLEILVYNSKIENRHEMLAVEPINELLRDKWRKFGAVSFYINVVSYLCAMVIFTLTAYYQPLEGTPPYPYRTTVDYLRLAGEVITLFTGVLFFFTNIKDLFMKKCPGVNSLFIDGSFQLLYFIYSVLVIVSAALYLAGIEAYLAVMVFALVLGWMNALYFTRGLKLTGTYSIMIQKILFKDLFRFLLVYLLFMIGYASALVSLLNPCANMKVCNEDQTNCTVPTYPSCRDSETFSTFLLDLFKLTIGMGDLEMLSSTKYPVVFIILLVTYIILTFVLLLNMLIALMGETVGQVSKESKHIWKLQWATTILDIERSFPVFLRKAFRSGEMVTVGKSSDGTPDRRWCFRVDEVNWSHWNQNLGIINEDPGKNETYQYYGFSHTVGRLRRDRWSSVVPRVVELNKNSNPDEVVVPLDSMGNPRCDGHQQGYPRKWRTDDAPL
Assay: [Ca2+]i recordings (Fura-2), TRPV4:V4 in CHO cells
Settings: CHO; activator 4α-PDD
measurement_kind: IC50 (µM)
Kindly provide the numeric value in µM only, without the unit symbol.

Given the entry c1ccc(Cn2c(NCc3ccco3)nc3ccccc32)cc1 [AC1903] , what IC50 was observed with TRPV4:V4 (Homo sapiens, UniProt Q9HBA0)? 19

---

Target: TRPC5:C5 (Homo sapiens)
Construct: expressed in transfected cells; host or cells: HEK T-REx (tetracycline-induced)
Sequence (Q9UL62 whole entry): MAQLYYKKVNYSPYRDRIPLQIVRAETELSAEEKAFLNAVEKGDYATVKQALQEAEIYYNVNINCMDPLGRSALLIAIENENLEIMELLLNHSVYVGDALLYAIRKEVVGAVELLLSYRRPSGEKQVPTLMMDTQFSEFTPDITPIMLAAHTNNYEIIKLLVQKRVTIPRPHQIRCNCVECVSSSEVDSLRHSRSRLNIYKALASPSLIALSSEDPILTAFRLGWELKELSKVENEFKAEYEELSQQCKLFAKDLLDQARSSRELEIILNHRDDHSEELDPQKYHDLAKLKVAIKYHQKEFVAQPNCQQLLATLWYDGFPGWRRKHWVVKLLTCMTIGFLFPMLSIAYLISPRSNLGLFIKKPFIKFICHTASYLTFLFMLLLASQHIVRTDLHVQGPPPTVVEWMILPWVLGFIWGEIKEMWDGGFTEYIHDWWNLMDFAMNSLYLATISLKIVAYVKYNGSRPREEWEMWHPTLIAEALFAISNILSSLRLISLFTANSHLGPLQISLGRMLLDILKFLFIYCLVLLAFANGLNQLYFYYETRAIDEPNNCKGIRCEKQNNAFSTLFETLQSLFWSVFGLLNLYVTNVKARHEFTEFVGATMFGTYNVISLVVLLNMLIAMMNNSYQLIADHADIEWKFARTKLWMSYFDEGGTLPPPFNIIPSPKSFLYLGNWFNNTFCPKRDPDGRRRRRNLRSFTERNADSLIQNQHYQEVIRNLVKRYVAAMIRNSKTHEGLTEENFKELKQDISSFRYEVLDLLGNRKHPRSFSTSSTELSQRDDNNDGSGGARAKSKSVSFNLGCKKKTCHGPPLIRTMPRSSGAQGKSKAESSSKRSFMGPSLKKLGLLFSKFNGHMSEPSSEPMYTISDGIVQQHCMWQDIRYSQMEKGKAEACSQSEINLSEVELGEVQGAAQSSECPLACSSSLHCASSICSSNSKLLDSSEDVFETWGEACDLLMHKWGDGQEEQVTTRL
Assay: [Ca2+]i recordings (Fura-2), TRPC5:C5 in HEK T-REx cells
Format: cell-based
Conditions: HEK T-REx; activator EA (30 nM); 30 min preincubation
Protocol: Based on the findings described above, we wondered whether AC1903—which is typically used as a TRPC5 inhibitor at concentrations of 30–100 μM in cellular assays ([29], [56])—might have limited selectivity for TRPC5 channels and whether its effect on intracellular G418 levels and PTC readthrough might be the consequence of inhibition of other or multiple targets. All well-characterized TRPC channel inhibitors reported to date modulate multiple TRP(C) channels ([34], [35], [36]). […]
measurement_kind: IC50 (µM)
Numbers only here, please. The scale is µM.

Fill in: IC50 of "c1ccc(Cn2c(NCc3ccco3)nc3ccccc32)cc1" is ___ 18

---

Molecular target: UniProt Q92508
Sequence (Q92508 whole entry): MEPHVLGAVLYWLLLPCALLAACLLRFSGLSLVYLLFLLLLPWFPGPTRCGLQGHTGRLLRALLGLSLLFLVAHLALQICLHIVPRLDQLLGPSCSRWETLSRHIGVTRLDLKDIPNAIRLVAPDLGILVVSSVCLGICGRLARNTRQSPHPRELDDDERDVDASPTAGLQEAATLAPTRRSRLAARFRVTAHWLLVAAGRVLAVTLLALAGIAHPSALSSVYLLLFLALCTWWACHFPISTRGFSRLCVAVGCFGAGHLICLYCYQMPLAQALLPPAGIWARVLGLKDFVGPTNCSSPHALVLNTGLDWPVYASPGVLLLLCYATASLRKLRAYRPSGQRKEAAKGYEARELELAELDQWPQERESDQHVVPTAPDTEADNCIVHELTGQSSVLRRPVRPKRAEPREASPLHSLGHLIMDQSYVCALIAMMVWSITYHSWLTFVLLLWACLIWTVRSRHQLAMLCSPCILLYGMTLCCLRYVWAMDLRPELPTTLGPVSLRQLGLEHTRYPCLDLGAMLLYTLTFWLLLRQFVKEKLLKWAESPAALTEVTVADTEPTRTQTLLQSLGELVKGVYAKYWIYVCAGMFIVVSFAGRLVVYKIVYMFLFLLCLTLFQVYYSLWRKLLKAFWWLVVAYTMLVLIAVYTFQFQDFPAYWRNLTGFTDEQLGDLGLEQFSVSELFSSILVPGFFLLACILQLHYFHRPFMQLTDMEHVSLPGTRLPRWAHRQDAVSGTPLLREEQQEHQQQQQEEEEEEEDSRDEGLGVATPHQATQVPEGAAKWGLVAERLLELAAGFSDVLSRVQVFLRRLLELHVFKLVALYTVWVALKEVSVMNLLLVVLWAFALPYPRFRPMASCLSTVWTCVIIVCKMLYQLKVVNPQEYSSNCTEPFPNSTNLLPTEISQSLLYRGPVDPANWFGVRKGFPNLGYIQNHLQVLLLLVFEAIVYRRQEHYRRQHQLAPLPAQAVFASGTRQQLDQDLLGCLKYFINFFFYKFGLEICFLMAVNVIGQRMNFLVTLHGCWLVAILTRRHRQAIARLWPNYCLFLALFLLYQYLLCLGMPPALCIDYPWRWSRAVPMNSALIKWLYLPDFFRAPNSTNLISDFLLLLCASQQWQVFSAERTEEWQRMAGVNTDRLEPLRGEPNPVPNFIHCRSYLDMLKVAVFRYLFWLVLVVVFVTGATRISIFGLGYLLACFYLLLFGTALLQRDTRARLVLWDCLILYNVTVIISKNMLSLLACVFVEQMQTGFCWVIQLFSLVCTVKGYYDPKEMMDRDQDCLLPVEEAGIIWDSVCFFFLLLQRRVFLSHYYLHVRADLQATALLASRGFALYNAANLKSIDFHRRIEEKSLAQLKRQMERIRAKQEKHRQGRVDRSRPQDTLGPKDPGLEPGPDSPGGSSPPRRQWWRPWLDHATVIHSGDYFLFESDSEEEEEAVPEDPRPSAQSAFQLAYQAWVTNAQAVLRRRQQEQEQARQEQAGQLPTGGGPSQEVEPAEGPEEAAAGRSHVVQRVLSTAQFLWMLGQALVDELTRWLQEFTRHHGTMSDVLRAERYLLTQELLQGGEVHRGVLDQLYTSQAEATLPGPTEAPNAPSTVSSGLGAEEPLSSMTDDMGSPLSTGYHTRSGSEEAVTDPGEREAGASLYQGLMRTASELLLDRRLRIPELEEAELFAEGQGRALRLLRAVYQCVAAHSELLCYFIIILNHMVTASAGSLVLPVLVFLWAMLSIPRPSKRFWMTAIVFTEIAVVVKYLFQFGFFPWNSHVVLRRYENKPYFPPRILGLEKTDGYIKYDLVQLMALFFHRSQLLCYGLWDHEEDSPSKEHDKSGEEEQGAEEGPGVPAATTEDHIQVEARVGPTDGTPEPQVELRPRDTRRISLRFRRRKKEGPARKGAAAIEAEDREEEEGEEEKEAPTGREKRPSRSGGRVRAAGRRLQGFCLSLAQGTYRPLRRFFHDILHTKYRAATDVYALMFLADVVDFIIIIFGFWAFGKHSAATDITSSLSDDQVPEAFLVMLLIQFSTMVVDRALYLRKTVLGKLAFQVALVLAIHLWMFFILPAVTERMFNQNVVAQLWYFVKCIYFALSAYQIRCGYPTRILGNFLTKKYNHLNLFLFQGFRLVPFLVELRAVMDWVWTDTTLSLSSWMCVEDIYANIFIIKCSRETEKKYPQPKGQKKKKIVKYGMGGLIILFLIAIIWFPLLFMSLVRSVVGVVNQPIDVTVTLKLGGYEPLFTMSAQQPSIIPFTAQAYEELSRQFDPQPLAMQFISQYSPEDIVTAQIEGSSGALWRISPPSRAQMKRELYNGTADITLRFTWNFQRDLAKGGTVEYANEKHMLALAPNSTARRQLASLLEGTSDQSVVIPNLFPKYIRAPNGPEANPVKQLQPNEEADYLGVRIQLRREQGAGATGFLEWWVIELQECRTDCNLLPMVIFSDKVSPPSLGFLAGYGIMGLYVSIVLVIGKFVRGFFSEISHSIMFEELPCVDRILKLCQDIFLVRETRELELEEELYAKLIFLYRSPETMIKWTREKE
Test: [Ca2+]i recordings (Fura-2), Piezo1 in HEK T-REx cells
Settings: HEK T-REx; activator Yoda1 (3 μM)
measurement_kind: IC50

Any idea what its IC50 is? The compound is "c1ccc(Cn2c(NCc3ccco3)nc3ccccc32)cc1" > 100 µM

---

System: DMS-114 cells (TP53 R213X)
Test: G418-induced PTC readthrough (full-length p53, capillary electrophoresis Western) in DMS-114 cells
Assay type: cell-based, human
Conditions: 3 h preincubation with inhibitor, screen at two concentrations (Fig. 1C)
measurement_kind: suppression of PTC readthrough induced by 400 μg/ml G418

>>> result_value("COc1ccc(CCCOC(Cn2ccnc2)c2ccc(OC)cc2)cc1 (stereo not shown) [SKF96365]")
"~33%"
>>> result_value("N#Cc1ccc(O[C@@H]2c3ccccc3C[C@H]2N2CCC[C@@H](N)C2)c(Cl)c1 [SAR7334]")
"no effect"
>>> result_value("O=C1CN(c2cn[nH]c(=O)c2Cl)CCN1Cc1ccccc1C(F)(F)F [GFB-8438]")
"no effect"
>>> result_value("NCCOB(c1ccccc1)c1ccccc1 [2-APB]")
"~66%"
